Test system: PPARg:RXRa DBDmut IVT, anti-RXR (DBD mutation: RXRa K156A/R161A, NR concentration 270 nM, RXRa partner concentration 90 nM)
Experiment notes: PBM binding z-score (relative to random genomic background probes); higher = stronger binding; sequences stand for … in GC…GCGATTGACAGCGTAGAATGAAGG
Would you please tag the item 1 (yes) when its PBM binding z-score is 2 or above, and 0 (no) when it is below?

Prompt: Decide: PBM binding z-score of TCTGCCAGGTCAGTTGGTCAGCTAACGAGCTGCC >= 2?
Response: 0 (no)

Prompt: Same question for CCTACTGGGCCATTCAGCGGTCATTGATCATATG please.
Response: 1 (yes)

Prompt: Same question for ATCTCTAGGTCACCAAGTTCAGTGAATGCCGAAC please.
Response: 1 (yes)

Prompt: Same question for ATCTCTAGGGAAAGATAGTTCAGTGAATGCAAAT please.
Response: 0 (no)

Prompt: Same question for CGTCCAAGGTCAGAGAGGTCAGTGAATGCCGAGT please.
Response: 1 (yes)

Prompt: Same question for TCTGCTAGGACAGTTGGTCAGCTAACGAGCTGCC please.
Response: 0 (no)

Prompt: Same question for ATATGTAAGTTAGCTGGGGTCATTCAGACTAGGC please.
Response: 0 (no)

Prompt: Same question for CCGACTGCGGCAGAAAGGTTACCATACCATCCGG please.
Response: 0 (no)

Prompt: Same question for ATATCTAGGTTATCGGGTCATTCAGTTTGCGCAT please.
Response: 1 (yes)

Prompt: Same question for CCTAGTTGATCAAGGTCACACACGCTATAGGTAC please.
Response: 1 (yes)

Prompt: Same question for CCTTACGCGTCACTGACAGGTTATAGCATTTGGA please.
Response: 0 (no)

Prompt: Same question for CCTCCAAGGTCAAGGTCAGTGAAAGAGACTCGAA please.
Response: 1 (yes)

Prompt: Same question for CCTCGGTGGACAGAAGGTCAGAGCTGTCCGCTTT please.
Response: 0 (no)

Prompt: Same question for ATCTGTAGGTAACAAGTTCAGTGAAAGAGAGGAC please.
Response: 1 (yes)

Prompt: Same question for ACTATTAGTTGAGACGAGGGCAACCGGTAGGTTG please.
Response: 0 (no)

Prompt: Same question for ATCTCTAGGTAAAAGTTCCGTGAATCCCGAGGAT please.
Response: 1 (yes)

Prompt: Same question for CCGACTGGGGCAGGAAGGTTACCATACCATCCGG please.
Response: 0 (no)

Prompt: Same question for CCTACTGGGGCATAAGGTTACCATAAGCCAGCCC please.
Response: 1 (yes)

Prompt: Same question for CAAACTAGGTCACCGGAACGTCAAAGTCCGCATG please.
Response: 1 (yes)

Prompt: Same question for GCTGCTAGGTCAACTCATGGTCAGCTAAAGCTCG please.
Response: 1 (yes)

Prompt: Same question for GGAACGAGGGCAAAGTTGATAGTATCTGTCGACG please.
Response: 1 (yes)

Prompt: Same question for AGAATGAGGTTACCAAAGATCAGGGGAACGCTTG please.
Response: 1 (yes)

Prompt: Same question for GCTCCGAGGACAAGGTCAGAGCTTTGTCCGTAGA please.
Response: 0 (no)

Prompt: Same question for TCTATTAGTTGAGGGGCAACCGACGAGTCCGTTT please.
Response: 1 (yes)

Prompt: Same question for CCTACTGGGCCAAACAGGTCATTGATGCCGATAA please.
Response: 1 (yes)
